A collection of molecules and their measured pIC50
Target: human P2X3 receptor (Homo sapiens (Human), UniProt P56373)
Sequence (P56373 whole entry): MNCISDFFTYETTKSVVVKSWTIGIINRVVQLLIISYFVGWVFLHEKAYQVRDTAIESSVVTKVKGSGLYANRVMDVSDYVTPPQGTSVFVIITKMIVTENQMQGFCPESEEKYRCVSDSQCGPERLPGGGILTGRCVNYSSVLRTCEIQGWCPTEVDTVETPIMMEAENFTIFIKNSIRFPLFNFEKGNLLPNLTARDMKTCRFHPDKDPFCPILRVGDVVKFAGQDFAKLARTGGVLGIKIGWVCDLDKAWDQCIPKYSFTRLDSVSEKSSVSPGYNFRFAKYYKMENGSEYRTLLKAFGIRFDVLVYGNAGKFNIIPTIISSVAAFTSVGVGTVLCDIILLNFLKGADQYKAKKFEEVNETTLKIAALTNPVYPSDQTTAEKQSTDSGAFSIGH
Assay: Evaluation of human P2X3 receptor inhibitory activity (Test Example 1-1, FDSS 3000, 96-well, 50 nM ATP)
Format: cell-based
Conditions: human P2X3 receptor in C6BU-1 cells; Test Example 1-1 (compounds I-001 to I-300)
The value called pIC50 is obtained by taking minus log10 of the concentration in mol/L.

Worked cases, answers included:
N#Cc1ccc(Oc2ccc(Nc3nc(=O)c(C(=O)NC4CCOCC4)cn3Cc3ccc(Cl)cc3)cc2)nc1 [Compound I-228] = 8.00
NC(=O)c1ccc(Oc2ccc(Nc3nc(=O)c(C(=O)NC4CCOCC4)cn3Cc3ccc(Cl)cc3)cc2)nc1 [Compound I-239] = 8.30
CCn1c(=O)cc(Nc2ccc(Oc3cccc(C(=O)O)c3)cn2)n(Cc2ccc(Cl)cc2)c1=O [Compound I-053] = 7.70
N#Cc1cccc(Oc2ccc(Nc3cc(=O)[nH]c(=O)n3Cc3ccc(Cl)cc3)cc2)n1 [Compound I-064] = 7.44

Tested on human P2X3 receptor (Homo sapiens (Human), UniProt P56373): CCCn1c(=O)cc(Nc2ccc(Oc3cccc(C#N)n3)cc2)n(Cc2ccc(Cl)cc2)c1=O [Compound I-164] . Observed pIC50: 8.00

Tested on human P2X3 receptor (Homo sapiens (Human), UniProt P56373): CCOC(=O)c1c[nH]/c(=N\c2ccc(Oc3ccc(C)nn3)cc2)n(Cc2ccc(Cl)cc2)c1=O [Compound I-177] . Observed pIC50: 7.85

Tested on human P2X3 receptor (Homo sapiens (Human), UniProt P56373): CCC(=O)N(CC)c1c[nH]/c(=N\c2ccc(Oc3cccc(C(=O)O)n3)cc2)n(Cc2ccc(Cl)cc2)c1=O [Compound I-193] . Observed pIC50: 8.22

Tested on human P2X3 receptor (Homo sapiens (Human), UniProt P56373): CCC(=O)Nc1c[nH]/c(=N\c2ccc(Oc3ccc(CO)nn3)cc2)n(Cc2ccc(Cl)cc2)c1=O [Compound I-089] . Observed pIC50: 7.77

Tested on human P2X3 receptor (Homo sapiens (Human), UniProt P56373): CN(C)C(=O)CNC(=O)c1cn(Cc2ccc(Cl)cc2)c(Nc2ccc(Oc3cccc(F)n3)cc2)nc1=O [Compound I-299] . Observed pIC50: 7.74

###

A collection of molecules and their measured IC50
Target: human P2X3 receptor (Homo sapiens (Human))
Experiment: Evaluation of human P2X3 receptor inhibitory activity (Test Example 1-1, FDSS 3000, 96-well, 50 nM ATP)
Assay type: cell-based
Settings: human P2X3 receptor in C6BU-1 cells; Test Example 1-1 (compounds I-001 to I-300)

CCn1c(=O)cc(Nc2ccc(Oc3cccc(C#N)n3)c(C)c2)n(Cc2ccc(Cl)cc2)c1=O = 2 nM
O=C(NC1CCOCC1)c1cn(Cc2ccc(Cl)cc2)c(Nc2ccc(Oc3ccc(F)cn3)cc2)nc1=O = 11 nM
CCCn1c(=O)cc(Nc2ccc(Oc3cccc(C(=O)O)c3)cc2)n(Cc2ccc(Cl)cc2)c1=O = 11 nM
C/C(O)=C(/C#N)C(=O)Nc1c[nH]/c(=N\c2ccc(Oc3ccon3)cc2)n(Cc2ccc(Cl)cc2)c1=O = 6 nM
O=C(Nc1c[nH]/c(=N\c2ccc(Oc3ccon3)cc2)n(Cc2ccc(Cl)cc2)c1=O)C1CCNCC1 = 72 nM
CCc1oc2ccc(/N=c3\[nH]cc(NC(=O)C4CCOCC4)c(=O)n3Cc3ccc(Cl)cc3)cc2c1C = 5 nM

Now turn to the next molecule.
The recorded IC50 for `C[C@@H](Cn1c(=O)cc(Nc2ccc(Oc3ccon3)cc2)n(Cc2ccc(Cl)cc2)c1=O)C(=O)O` is 26 nM
